# GI50 listing for each entry below
- System: SNB-19
- EXPERIMENT_DESCRIPTION: NCI tumour cell line growth inhibition, 48 h
Active and inactive are the calls of the source. Rule as the data show it: active = GI50 up to about 1.1 µM and inactive = higher.

COMPOUND	GI50
N#CCC(=O)Nc1ccccc1O	> 100 µM (inactive)
COc1cc(-c2cc(=O)c3c(OC)c(OC)c(OC)c(OC)c3o2)cc(OC)c1OC	76.6 µM (inactive)
C[C@]12CC[C@H](OC(=O)Cc3ccc(N(CCCl)CCCl)cc3)CC1CC[C@@H]1C2CC[C@]2(C)NC(=O)CCC12 (stereo not given in full)	13 µM (inactive)
CC1=NN(C(=O)CC(=O)N(C(=O)c2ccccc2Cl)c2ccc(C)cc2)C(=O)C1/N=N/c1ccc([N+](=O)[O-])cc1 (stereo not given)	53.1 µM (inactive)
c1ccc(COc2cccc3cccnc23)cc1	> 100 µM (inactive)
